- STUDY_TARGET: human ether-à-go-go-related gene (hERG) potassium channel (human, UniProt Q12809);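 note: peak tail current of the secondary pulse compared with the same well before compound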
- Sequence (Q12809 whole entry, looked up): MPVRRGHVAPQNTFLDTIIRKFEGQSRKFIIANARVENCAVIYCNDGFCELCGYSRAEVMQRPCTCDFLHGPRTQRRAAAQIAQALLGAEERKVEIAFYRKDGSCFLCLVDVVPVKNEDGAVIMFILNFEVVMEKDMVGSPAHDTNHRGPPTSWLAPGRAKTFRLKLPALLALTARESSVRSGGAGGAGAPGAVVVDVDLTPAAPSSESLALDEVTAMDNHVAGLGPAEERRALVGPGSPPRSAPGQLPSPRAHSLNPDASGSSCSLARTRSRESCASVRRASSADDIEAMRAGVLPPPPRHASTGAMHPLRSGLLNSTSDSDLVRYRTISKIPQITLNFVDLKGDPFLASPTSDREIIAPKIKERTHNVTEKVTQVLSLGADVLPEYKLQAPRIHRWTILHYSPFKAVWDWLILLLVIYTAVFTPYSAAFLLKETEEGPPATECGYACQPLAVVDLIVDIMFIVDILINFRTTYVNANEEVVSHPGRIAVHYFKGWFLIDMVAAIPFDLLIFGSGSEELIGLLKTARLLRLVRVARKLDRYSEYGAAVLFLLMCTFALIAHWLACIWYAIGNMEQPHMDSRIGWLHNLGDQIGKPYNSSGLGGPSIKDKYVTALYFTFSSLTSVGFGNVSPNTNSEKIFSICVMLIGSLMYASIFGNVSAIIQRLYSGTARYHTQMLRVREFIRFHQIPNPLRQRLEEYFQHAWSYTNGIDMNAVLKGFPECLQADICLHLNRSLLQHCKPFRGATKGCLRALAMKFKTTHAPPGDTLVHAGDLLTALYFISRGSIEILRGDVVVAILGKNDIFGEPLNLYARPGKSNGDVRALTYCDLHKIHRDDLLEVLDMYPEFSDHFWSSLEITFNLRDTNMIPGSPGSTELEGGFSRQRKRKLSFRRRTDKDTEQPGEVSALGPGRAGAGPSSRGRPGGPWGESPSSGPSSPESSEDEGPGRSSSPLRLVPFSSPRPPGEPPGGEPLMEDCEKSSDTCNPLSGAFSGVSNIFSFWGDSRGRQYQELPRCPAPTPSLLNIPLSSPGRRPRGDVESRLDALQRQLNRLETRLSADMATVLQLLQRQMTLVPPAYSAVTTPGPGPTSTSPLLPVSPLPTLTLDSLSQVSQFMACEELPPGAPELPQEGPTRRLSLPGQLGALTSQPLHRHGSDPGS
- ASSAY_INFO: primary screen, population patch clamp on CHO cells stably expressing hERG; higher = less effect of the substance
Out of some 310,000 compounds screened, about 14,000 (4.5%) showed an effect of 50% or more. Effects have a minus sign here. Only a selection was taken, and strong results are over-represented in it overall.
MEASUREMENT_KIND: hERG current change (%, negative = inhibition) at 10uM (%)

CS(=O)(=O)N(CC(=O)NCc1ccc(Cl)cc1)C1CCCCC1 : -26.1
COc1ccc(-c2[nH]ncc2CN2CCN(C(=O)c3ccco3)CC2)cc1F : -6.81
N#Cc1cc2c(N)c(C(=O)Nc3ccccc3)sc2nc1N : 8.83
CSc1ccc(CNCC2CCCO2)cc1.Cl (centres unmarked) : 2.99
CC1CCN(CCc2nc3cc(NC(=O)C(C)C)ccc3n2C)CC1 : -0.549
Cc1nc(NCc2ccccc2)c2cc[nH]c2n1 : 21
O=C(NCc1ccccc1)c1cccc(NS(=O)(=O)c2cccc3cccnc23)c1 : 6.09
Cc1cccc(N2CCN(C(=O)c3ccc4c(c3)NC(=O)C(CSCc3cccc(F)c3)N4)CC2)c1C (centres unmarked) : 15.9
CCOC(=O)N1CCN(C(=O)c2ccc(Oc3ccc([N+](=O)[O-])cc3)cc2)CC1 : -68.3
Fc1ccc(C2c3cccn3CCN2C(=S)Nc2cccc(Br)c2)cc1 (centres unmarked) : 19.4
CCCNC(=O)NC(C(=O)OC)C12CC3CC(CC(C3)C1)C2 (centres unmarked) : -10.8
Cc1ccc(SCC(=O)NCc2ccncc2)cc1 : -6.77
Cc1ccc(S(=O)(=O)N(CC(=O)NCc2ccncc2)C2CCCCC2)cc1 : -63
O=C(O)C(CCCCN1C(=O)C2C3C=CC(C3)C2C1=O)N1C(=O)C2C3C=CC(C3)C2C1=O (centres unmarked) : 2.41
O=C(CCSc1ccc(Cl)cc1)NCc1ccncc1 : -32.7
O=C(CN(C1CCCCC1)S(=O)(=O)c1ccc(Cl)cc1)NCc1ccncc1 : -69.8
N#CC1=C(N)Nc2ncnn2C1c1ccccc1 (centres unmarked) : 10.6
Cc1ccccc1CN1CCN(C(=O)c2ccco2)CC1.O=C(O)C(=O)O : 7.41
Cc1ccc(NC(=O)CCC(=O)N2CCOCC2)nc1 : 13
CCCCn1c(N)c(N(C)C(=O)c2ccc(-n3cccn3)cc2)c(=O)[nH]c1=O : 0.138
